test: qHTS of pediatric cancer cell lines to identify multiple opportunities for drug repurposing: Primary screen for Rh41 cells (AID 1347108); details: Rh41 rhabdomyosarcoma viability, CellTiter-Glo luminescence, 48 h; series mostly up to 46 µM; further: nearly all actives have a fitted effect of over 70% in size
Records with an inconclusive call do not appear. Active and inactive are the calls of the source. The call rests on the fitted dose curve; in most records, active means well fitted cell-killing curve with a large enough effect; inconclusive means small, poorly fitted or top-dose-only effect; inactive means no such curve, though single readings can be large or run the other way.
Lab note: assign the record to one of active, inactive

Any idea what this test logged for CCCC(=O)OCOC(=O)C1=C(C)NC(C)=C(C(=O)OC)C1c1cccc(Cl)c1Cl (centres undefined) ?
inactive

Also, `OC1(c2ccc(Cl)c(C(F)(F)F)c2)CCN(CCCC(c2ccc(F)cc2)c2ccc(F)cc2)CC1` please.
active

Also, CC(=O)OCC(=O)[C@@]1(O)CCC2C3CCC4=CC(=O)CC[C@]4(C)C3[C@@H](O)C[C@@]21C (some centres undefined) please.
inactive

Also, Cc1ccc(C(C)OC(=O)C2(C)CCC(C(=O)O)C2(C)C)cc1 (centres undefined) please.
inactive

Also, `Nc1nc(=O)n([C@@H]2O[C@H](CO)[C@@H](O)[C@@H]2F)cc1I` please.
inactive

Also, CCC(C(=O)OCCN1CCOC(c2ccccc2)C1C)c1ccccc1 (centres undefined) please.
inactive

Also, `CCCC(=O)c1cc(O)c(O)cc1O` please.
inactive

Also, `CC(C)(C)c1ccc(C(=O)CCCCl)cc1` please.
inactive

Also, `COc1cc2c(cc1OC)C(=O)CC2` please.
inactive

Also, CC(Oc1c(Cl)cccc1Cl)C1=NCCN1 (centres undefined) please.
inactive

Also, Cc1c(F)cc2c(=O)c(C(=O)O)cn3c2c1CCC3C (centres undefined) please.
inactive

Also, `OC1(c2ccccc2)CCNCC1` please.
inactive

Also, `Nc1ccc(O)cc1` please.
inactive

Also, `CC(C)C(C)(C)C(C)(C)C(C)(C)S` please.
inactive

Also, `O=C(O)CCCC[C@@H]1SC[C@@H]2NC(=O)N[C@@H]21` please.
inactive

Also, `O=C1NC(c2ccccc2)(c2ccccc2)C(=O)N1COP(=O)(O)O` please.
inactive

Also, `O=C(COCCOCCOCC(=O)Nc1c(I)cc(I)c(C(=O)O)c1I)Nc1c(I)cc(I)c(C(=O)O)c1I` please.
inactive

Also, `Cc1cc(O)c(C)c(C)c1O` please.
inactive

Also, CCCCC(CC)CNC(=O)CC(C)OC(=O)CCC(=O)O (centres undefined) please.
inactive

Also, `O=C1Nc2ccccc2C1(c1ccc(O)cc1)c1ccc(O)cc1` please.
inactive

Also, `CCC(=O)Oc1ccc2c(c1)CC[C@@H]1[C@@H]2CC[C@@]2(C)[C@H]1C[C@@H](OC(=O)CC)[C@@H]2OC(=O)CC` please.
inactive

Also, `CCN(CC)CCN` please.
inactive

Also, `O=C(Oc1ccccc1)c1cccc(C(=O)Oc2ccccc2)c1` please.
inactive

Also, `c1ccc2occc2c1` please.
inactive

Source listed as PubChem BioAssay (NCATS).
